Catalogue of molecules with associated Survival
# test: Organ distribution 14 days after infusion (Table V)
# Format: in vivo, rats
# condition.details: 14 days after infusion of 40 cc/Kg

| molecule | Survival |
| --- | --- |
| CCCCCCCC/C=C\CCCCCCCCOCC(COP(=O)([O-])OCC[N+](C)(C)C)OCCCCCCCC/C=C\CCCCCCCC (centres unmarked) | 8/10 |
| CCCCCCCCCCCCCCCCCCOCC(COP(=O)([O-])OCC[N+](C)(C)C)OCCCCCCCCCCCCCCCC (centres unmarked) | 9/10 |
| CCCCCCCCCCCCCCCCCCOC(COCCCCCCCCCCCCCC)COP(=O)([O-])OCC[N+](C)(C)C (centres unmarked) | 6/10 |
| CCCCCCCCCCCCCCCCOC(COCCCCCCCCCCCCCC)COP(=O)([O-])OCC[N+](C)(C)C (centres unmarked) | 9/10 |
| CCCCCCCCCCCCCCCCOCC(COP(=O)([O-])OCC[N+](C)(C)C)OCCCCCCCCCCCCCC (centres unmarked) | 9/10 |

---

# test: Organ distribution 14 days after infusion (Table V)
# Format: in vivo, rats
# condition.details: 14 days after infusion of 40 cc/Kg, hematocrit
endpoint: Hct (v/v %)

| molecule | numeric.readout |
| --- | --- |
| CCCCCCCC/C=C\CCCCCCCCOCC(COP(=O)([O-])OCC[N+](C)(C)C)OCCCCCCCC/C=C\CCCCCCCC (centres unmarked) [Cpd 1i, 1,2-Dioleylglycerophosphoryl choline] | 34.7 |
| CCCCCCCCCCCCCCCCOC(COCCCCCCCCCCCCCC)COP(=O)([O-])OCC[N+](C)(C)C (centres unmarked) [Cpd 1k] | 36.5 |
| CCCCCCCCCCCCCCCCCCOC(COCCCCCCCCCCCCCC)COP(=O)([O-])OCC[N+](C)(C)C (centres unmarked) [Cpd 1g] | 39.0 |
| CCCCCCCCCCCCCCCCOCC(COP(=O)([O-])OCC[N+](C)(C)C)OCCCCCCCCCCCCCC (centres unmarked) [Cpd 1e] | 35.8 |
| CCCCCCCCCCCCCCCCCCOCC(COP(=O)([O-])OCC[N+](C)(C)C)OCCCCCCCCCCCCCCCC (centres unmarked) [Cpd 1j] | 44.4 |

---

# Test system: rat whole blood
# test: Hemolysis screening of surfactants
# Format: cell-based
# condition.details: 5% surfactant in 0.9% saline admixed 1:1 with rat whole blood; visually distinct red hue of supernate

| compound | target.of.assay | Hemolytic |
| --- | --- | --- |
| CCCCCCCCCCCCCCCCOCC(COP(=O)([O-])OCC[N+](C)(C)C)OCCCCCCCCCCCCCCCC (stereo not drawn) [Cpd 1c] | rat whole blood | No |
| CCCCCCCC/C=C\CCCCCCCCOCC(COP(=O)([O-])OCC[N+](C)(C)C)OCCCCCCCC/C=C\CCCCCCCC (stereo not drawn) [Cpd 1i, 1,2-Dioleylglycerophosphoryl choline] | rat whole blood | No |
| CCCCCCCCCCCCCCCCCCOCC(COP(=O)([O-])OCC[N+](C)(C)C)OCCCCCCCCCCCCCC (stereo not drawn) [Cpd 1f] | rat whole blood | No |

---

Known Lung of a selection of compounds
# test: Organ distribution 14 days after infusion (Table V)
# Assay type: in vivo, rats
# condition.details: 14 days after infusion of 40 cc/Kg
# Experimental: The impact of the emulsions of Table IV on organ distribution of PFC was then determined by sacrificing the test animals 14 days after infusion.
endpoint: Lung

| compound | result |
| --- | --- |
| CCCCCCCC/C=C\CCCCCCCCOCC(COP(=O)([O-])OCC[N+](C)(C)C)OCCCCCCCC/C=C\CCCCCCCC (centres unmarked) [Cpd 1i, 1,2-Dioleylglycerophosphoryl choline] | 0.64 g/100 g |
| CCCCCCCCCCCCCCCCOCC(COP(=O)([O-])OCC[N+](C)(C)C)OCCCCCCCCCCCCCC (centres unmarked) [Cpd 1e] | 0.57 g/100 g |
| CCCCCCCCCCCCCCCCCCOCC(COP(=O)([O-])OCC[N+](C)(C)C)OCCCCCCCCCCCCCCCC (centres unmarked) [Cpd 1j] | 0.57 g/100 g |
| CCCCCCCCCCCCCCCCCCOC(COCCCCCCCCCCCCCC)COP(=O)([O-])OCC[N+](C)(C)C (centres unmarked) [Cpd 1g] | 0.55 g/100 g |
| CCCCCCCCCCCCCCCCOC(COCCCCCCCCCCCCCC)COP(=O)([O-])OCC[N+](C)(C)C (centres unmarked) [Cpd 1k] | 0.64 g/100 g |
